Target: Glutamate carboxypeptidase 2 (Homo sapiens, UniProt Q04609)
Experiment: Inhibition of […] binding to PSMA in human PC3-PIP cells at 0.2 nM incubated for 1 hr
Assay type: cell-based
Active and inactive are the calls of the source. The rule behind the calls is not given here.
measurement_type: inhibition

smiles_code	measurement_type	data_value
O=C(O)CC[C@H](NC(=O)N[C@@H](CCCCNC(=O)[C@H](Cc1ccccc1)NC(=O)[C@H](CCC(=O)O)NC(=O)[C@H](CCC(=O)O)NC(=O)c1ccc(I)cc1)C(=O)O)C(=O)O	inhibition	Active
O=C(O)CC[C@H](NC(=O)N[C@@H](CCCCNC(=O)[C@H](Cc1ccccc1)NC(=O)COc1ccc(C[C@H](NC(=O)[C@H](CCC(=O)O)NC(=O)c2ccc(I)cc2)C(=O)O)cc1)C(=O)O)C(=O)O	inhibition	Active
O=C(O)CC[C@H](NC(=O)N[C@@H](CCCCNC(=O)[C@H](Cc1ccccc1)NC(=O)[C@H](CCC(=O)O)NC(=O)c1ccc(I)cc1)C(=O)O)C(=O)O	inhibition	Active

----------
Kindly state Drug uptake for each of the entries shown.
Experiment: Drug internalization in human PC3-PIP cells at 0.2 nM incubated for 1 hr followed by compound washout measured using 125I-labelled compound by gamma counter analysis
Format: ADME, cell-based
Details: 0.0002 µM
All answers are understood in %, so give the number only.

Drug uptake for `O=C(O)CC[C@H](NC(=O)N[C@@H](CCCCNC(=O)[C@H](Cc1ccccc1)NC(=O)COc1ccc(C[C@H](NC(=O)CNC(=O)c2ccc([125I])cc2)C(=O)O)cc1)C(=O)O)C(=O)O` ?
51

Drug uptake for `O=C(O)CC[C@H](NC(=O)N[C@@H](CCCCNC(=O)Nc1ccc([125I])cc1)C(=O)O)C(=O)O` ?
38

Drug uptake for `O=C(O)CC[C@H](NC(=O)N[C@@H](CCCCNC(=O)[C@H](Cc1ccccc1)NC(=O)COc1ccc(C[C@H](NC(=O)[C@H](CCC(=O)O)NC(=O)c2ccc([125I])cc2)C(=O)O)cc1)C(=O)O)C(=O)O` ?
58

Drug uptake for `O=C(O)CC[C@H](NC(=O)N[C@@H](CCCCNC(=O)[C@H](Cc1ccccc1)NC(=O)[C@H](CCC(=O)O)NC(=O)c1ccc([125I])cc1)C(=O)O)C(=O)O` ?
36

Drug uptake for `O=C(O)CC[C@H](NC(=O)N[C@@H](CCCCNC(=O)[C@H](Cc1ccccc1)NC(=O)COc1ccc(C[C@H](NC(=O)[C@H](CCC(=O)O)NC(=O)[C@H](CCC(=O)O)NC(=O)c2ccc([125I])cc2)C(=O)O)cc1)C(=O)O)C(=O)O` ?
62

Drug uptake for `O=C(O)CC[C@H](NC(=O)N[C@@H](CCCCNC(=O)[C@H](Cc1ccccc1)NC(=O)[C@H](CCC(=O)O)NC(=O)[C@H](CCC(=O)O)NC(=O)c1ccc([125I])cc1)C(=O)O)C(=O)O` ?
37

Drug uptake for `O=C(O)CC[C@H](NC(=O)N[C@@H](CCCCNC(=O)[C@H](Cc1ccccc1)NC(=O)COc1ccc(C[C@H](NC(=O)Nc2ccc([125I])cc2)C(=O)O)cc1)C(=O)O)C(=O)O` ?
73

----------
Assay: Drug internalization in human PC3-PIP cells at 0.2 nM incubated for 2 hrs followed by compound washout measured using 125I-labelled compound by gamma counter analysis
Format: ADME, cell-based
Details: 0.0002 µM
measurement_type: Drug uptake (%)
All answers are understood in %, so give the number only.

Drug uptake for `O=C(O)CC[C@H](NC(=O)N[C@@H](CCCCNC(=O)[C@H](Cc1ccccc1)NC(=O)[C@H](CCC(=O)O)NC(=O)[C@H](CCC(=O)O)NC(=O)c1ccc([125I])cc1)C(=O)O)C(=O)O` ?
47

Drug uptake for `O=C(O)CC[C@H](NC(=O)N[C@@H](CCCCNC(=O)[C@H](Cc1ccccc1)NC(=O)COc1ccc(C[C@H](NC(=O)Nc2ccc([125I])cc2)C(=O)O)cc1)C(=O)O)C(=O)O` ?
76

Drug uptake for `O=C(O)CC[C@H](NC(=O)N[C@@H](CCCCNC(=O)Nc1ccc([125I])cc1)C(=O)O)C(=O)O` ?
47

Drug uptake for `O=C(O)CC[C@H](NC(=O)N[C@@H](CCCCNC(=O)[C@H](Cc1ccccc1)NC(=O)COc1ccc(C[C@H](NC(=O)CNC(=O)c2ccc([125I])cc2)C(=O)O)cc1)C(=O)O)C(=O)O` ?
55

Drug uptake for `O=C(O)CC[C@H](NC(=O)N[C@@H](CCCCNC(=O)[C@H](Cc1ccccc1)NC(=O)COc1ccc(C[C@H](NC(=O)[C@H](CCC(=O)O)NC(=O)c2ccc([125I])cc2)C(=O)O)cc1)C(=O)O)C(=O)O` ?
60

Drug uptake for `O=C(O)CC[C@H](NC(=O)N[C@@H](CCCCNC(=O)[C@H](Cc1ccccc1)NC(=O)COc1ccc(C[C@H](NC(=O)[C@H](CCC(=O)O)NC(=O)[C@H](CCC(=O)O)NC(=O)c2ccc([125I])cc2)C(=O)O)cc1)C(=O)O)C(=O)O` ?
64

Drug uptake for `O=C(O)CC[C@H](NC(=O)N[C@@H](CCCCNC(=O)[C@H](Cc1ccccc1)NC(=O)[C@H](CCC(=O)O)NC(=O)c1ccc([125I])cc1)C(=O)O)C(=O)O` ?
45

----------
Experiment: Drug uptake in kidney of CD-1 nude mouse xenografted with PC3-PIP cells at 6 nM to 9 nM, iv measured after 2 mins to 1440 mins using 125I-labelled compound by gamma counter analysis
Type: ADME, organism-based
Conditions: in vivo, 0.006 µM
measurement_type: Drug uptake

Field: example entries. Status: answers known.
smiles_code	Drug uptake
O=C(O)CC[C@H](NC(=O)N[C@@H](CCCCNC(=O)[C@H](Cc1ccccc1)NC(=O)COc1ccc(C[C@H](NC(=O)[C@H](CCC(=O)O)NC(=O)[C@H](CCC(=O)O)NC(=O)c2ccc([125I])cc2)C(=O)O)cc1)C(=O)O)C(=O)O	Active
O=C(O)CC[C@H](NC(=O)N[C@@H](CCCCNC(=O)[C@H](Cc1ccccc1)NC(=O)COc1ccc(C[C@H](NC(=O)CNC(=O)c2ccc([125I])cc2)C(=O)O)cc1)C(=O)O)C(=O)O	Not Active
O=C(O)CC[C@H](NC(=O)N[C@@H](CCCCNC(=O)[C@H](Cc1ccccc1)NC(=O)COc1ccc(C[C@H](NC(=O)Nc2ccc([125I])cc2)C(=O)O)cc1)C(=O)O)C(=O)O	Not Active
O=C(O)CC[C@H](NC(=O)N[C@@H](CCCCNC(=O)Nc1ccc([125I])cc1)C(=O)O)C(=O)O	Active
O=C(O)CC[C@H](NC(=O)N[C@@H](CCCCNC(=O)[C@H](Cc1ccccc1)NC(=O)COc1ccc(C[C@H](NC(=O)[C@H](CCC(=O)O)NC(=O)c2ccc([125I])cc2)C(=O)O)cc1)C(=O)O)C(=O)O	Active

Drug uptake for `O=C(O)CC[C@H](NC(=O)N[C@@H](CCCCNC(=O)[C@H](Cc1ccccc1)NC(=O)[C@H](CCC(=O)O)NC(=O)c1ccc([125I])cc1)C(=O)O)C(=O)O` ?
Active

Drug uptake for `O=C(O)CC[C@H](NC(=O)N[C@@H](CCCCNC(=O)[C@H](Cc1ccccc1)NC(=O)[C@H](CCC(=O)O)NC(=O)[C@H](CCC(=O)O)NC(=O)c1ccc([125I])cc1)C(=O)O)C(=O)O` ?
Active

----------
Target: Glutamate carboxypeptidase 2 (Homo sapiens)
Assay: Binding affinity to PSMA in human PC3-PIP cells assessed as drug uptake per 10^6 cells at 0.2 nM incubated for 2 hrs followed by compound washout measured using 125I-labelled compound by gamma counter analysis
Type: ADME, cell-based
Conditions: 0.0002 µM
Sequence (Q04609 whole entry): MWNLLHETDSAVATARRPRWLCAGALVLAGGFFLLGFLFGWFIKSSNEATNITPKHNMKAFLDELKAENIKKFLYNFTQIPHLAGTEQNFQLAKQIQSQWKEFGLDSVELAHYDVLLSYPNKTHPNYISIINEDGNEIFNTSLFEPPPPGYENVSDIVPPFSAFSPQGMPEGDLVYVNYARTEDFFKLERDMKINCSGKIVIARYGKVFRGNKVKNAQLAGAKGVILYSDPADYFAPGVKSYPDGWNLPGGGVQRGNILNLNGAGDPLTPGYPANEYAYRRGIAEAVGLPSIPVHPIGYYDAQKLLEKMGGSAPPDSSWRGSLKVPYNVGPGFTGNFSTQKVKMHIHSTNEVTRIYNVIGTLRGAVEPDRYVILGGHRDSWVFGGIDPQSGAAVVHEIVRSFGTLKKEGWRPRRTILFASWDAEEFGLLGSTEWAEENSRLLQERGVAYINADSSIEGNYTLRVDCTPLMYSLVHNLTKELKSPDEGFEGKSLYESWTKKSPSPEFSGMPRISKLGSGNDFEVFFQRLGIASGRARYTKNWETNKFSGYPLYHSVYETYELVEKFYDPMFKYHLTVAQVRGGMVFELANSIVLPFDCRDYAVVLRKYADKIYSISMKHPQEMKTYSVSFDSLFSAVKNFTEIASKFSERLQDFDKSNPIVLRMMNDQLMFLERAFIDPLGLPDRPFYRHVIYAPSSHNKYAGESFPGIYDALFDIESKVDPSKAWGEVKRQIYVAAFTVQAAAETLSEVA
Kindly state Drug uptake for each of the entries shown.
All answers are understood in %ID, so give the number only.

Drug uptake for `O=C(O)CC[C@H](NC(=O)N[C@@H](CCCCNC(=O)[C@H](Cc1ccccc1)NC(=O)COc1ccc(C[C@H](NC(=O)CNC(=O)c2ccc([125I])cc2)C(=O)O)cc1)C(=O)O)C(=O)O` ?
52

Drug uptake for `O=C(O)CC[C@H](NC(=O)N[C@@H](CCCCNC(=O)[C@H](Cc1ccccc1)NC(=O)COc1ccc(C[C@H](NC(=O)Nc2ccc([125I])cc2)C(=O)O)cc1)C(=O)O)C(=O)O` ?
60

Drug uptake for `O=C(O)CC[C@H](NC(=O)N[C@@H](CCCCNC(=O)[C@H](Cc1ccccc1)NC(=O)COc1ccc(C[C@H](NC(=O)[C@H](CCC(=O)O)NC(=O)c2ccc([125I])cc2)C(=O)O)cc1)C(=O)O)C(=O)O` ?
76
